ASSAYED TARGET: GST-human TopBP1 BRCT5 M689A (human, UniProt Q92547 641-746, M689A)
Sequence (Q92547 641-746 M689A): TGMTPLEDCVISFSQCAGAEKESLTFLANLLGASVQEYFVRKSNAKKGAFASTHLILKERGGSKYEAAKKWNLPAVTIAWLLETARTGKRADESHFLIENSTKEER
ASSAY TEXT: fluorescence polarisation
Square brackets hold non-standard residues; d marks the D form. * marks the point of attachment. FITC = O=C1OC2(c3ccc(O)cc3Oc3cc(O)ccc32)c2ccc(NC(=S)*)cc21; pS = N[C@@H](COP(=O)(O)O)C(=O)O
EXPERIMENTAL READOUT: Kd

1) {FITC}-DTDFVPP[pS]PEEII-NH2 [FITC-labelled BLM pSer304 peptide (FITC-DTDFVPPpSPEEII-NH2)] : 53 µM
